Molecular target: T1, CD27 protein (His-tagged, Sino Biological Inc. 10039-H08B1) (human, UniProt P26842 20-192)
T1 construct: bought protein coated on ELISA plates; also called TNFRSF7; not shown: His tag
T1 sequence (looked up): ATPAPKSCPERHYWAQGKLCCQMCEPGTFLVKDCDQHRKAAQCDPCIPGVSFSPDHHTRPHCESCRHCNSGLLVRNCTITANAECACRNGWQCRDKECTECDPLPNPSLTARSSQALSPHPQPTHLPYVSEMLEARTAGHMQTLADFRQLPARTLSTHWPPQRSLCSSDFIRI
Assay: ELISA, coated His-tagged CD27; also: test concentration or dose not given here
property: ELISA [abs. corr.]
The reply must contain the numeric value and, after it, the unit.

A selection of reference data follows.
P018.S.09.A.F05 (antibody, V domains shown, V regions on human Ig constant parts; also called AB27_157) VH: QEQLEESGGDLVKPGASLTLTCTASGFSFSSNYCMCWVRQAPGKGLEWIACICAGASGATYYASWAKGRFTVSKTSSTTVTLQMTSLTGADTATYFCARYDNSGWGDFKLWGPGTLVTVSS VL: DIVMTQTPASVSEPVGGTVTINCQASQNIGTYLAWYQQKPGQRPKLLIYAASYLASGVPSRFKGSGSGTEVALTISDLESADAATYYCQNTYYDSPVVGGAFGGGTEVVVK	3.12 abs. corr.
P018.S.01.A.E02 (antibody, V domains shown, V regions on human Ig constant parts; also called AB27_14) VH: QSVEESGGRLVTPGTPLTLTCTASGFSLSNYYMSWVRQAPGKGLEWIGIISTYGDTYYATWAKGRFTISKTSTTVDLKITSPTTEDTATYFCARGSSDTYYTYFNLWGPGTLVTVSS VL: DIVMTQTPASVEAAVGGTVTIKCQASQKIYNNLAWYQQKPGQPPKLLIYSASTLASGVPSRFKGSGSGTEFTLTISDLESADAATYYCQSYGVSANTISYGLPFGGGTEVVVK	3.13 abs. corr.
P018.S.10.A.B02 (antibody, V domains shown, V regions on human Ig constant parts; also called AB27_167) VH: QSVEESGGRLVTPGGSLTLSCTVNGFSLSSHGVSWVRQAPGKGLEWIGIIYVISGHAYYASWAKGRFTISKTSTTVDLKIASPTTEDTATYFCARGNYGSDSGPNFTRLDLWGQGTLVTVSS VL: AQVLTQTPSPVSATVGGTLTINCQASQSLYNNDYLAWYQQKPGQPPKLLIYLASTLASGVSSRFKGSGSGTQFTLTISGVQSDDAATYYCQGEFSCSSGDCLAFGGGTEVVVK	3.11 abs. corr.
P018.S.10.A.B03 (antibody, V domains shown, V regions on human Ig constant parts; also called AB27_168) VH: QSLEESGGRLVTPGTPLTLTCTASGFSLSSYDMGWVRQAPGKGLEWIGIISSSGSTYYASWAKGRFTISKTSSTTVDLKMTSLTTEDTATYFCARTSLDGNLWGQGTLVTVSS VL: AFEMTQTPSSVSEPVGGTVTIKCQASQSIYNYLSWYQQKPGQPPKLLIYDASALASGVPSRFKGSGSGTDFTLTISDLESADAATYYCQQDYSVSDVDNSFGGGTEVVVK	2.24 abs. corr.

Note: attention shifts to another entry.
Bench note: what ELISA [abs. corr.] did P018.S.04.A.E05 (antibody, V domains shown, V regions on human Ig constant parts; also called AB27_76) VH: QSLEESGGDLVKPGASLTLTCTASGFSFSSDYYMCWVRQAPGKGLEWIACISAGSSGSIYYASWAKGRFTISKTSSTTVTLQMTSLTAADTATYFCAREASDSIYYPIFNLWGPGTLVTVSS VL: AAVLTQTPSPVSAAVGGTVSISCQSSKSVYNNNALSWFQQKPGQPPKLLIYGASTLPSRVPSRFKGSGSGTQFTLTISDVQSDDAATYYCIGGYSSSSDTNAFGGGTEVVVK show?
3.11 abs. corr.
